Heart rate Change beats/min. at ED50 by entry:
System: dogs
ASSAY_TEXT: Inotropic potency in anesthetized dogs and conscious dogs with implanted cardiovascular transducers
Format: in vivo
TEST_PARAMETERS: dogs; at the contractile ED50
Give your result in beats/min. as a bare value.

Form field - read-out: Heart rate Change beats/min. at ED50; system: dogs; submitted item: C[C@@H](CCc1ccc(O)cc1)NC[C@H](O)c1ccccc1 [reference compound]
18

Any idea what Heart rate Change beats/min. at ED50 came out for C[C@H](CCc1ccc(C(N)=O)cc1)NC[C@H](O)c1ccccc1 on dogs?
15

Find Heart rate Change beats/min. at ED50 (dogs) for the entry C[C@H](CCc1ccc(O)cc1)NC[C@H](O)c1ccc(O)cc1
15

Find the measured Heart rate Change beats/min. at ED50: item C[C@H](CCc1ccc(O)cc1)NC[C@H](O)c1ccccc1 , target or system dogs.
15

Value wanted: Heart rate Change beats/min. at ED50 (dogs) of entry C[C@@H](CCc1ccc(O)cc1)NC[C@H](O)c1ccc(O)cc1 [reference compound]
15

###

System: dogs
ASSAY_TEXT: Inotropic potency in anesthetized dogs and conscious dogs with implanted cardiovascular transducers
Type: in vivo
TEST_PARAMETERS: dogs; at the contractile ED50
Experimental: The heart rate, arterial pressure, cardiac output, and the derivative of left ventricular pressure (which is the index of cardiac contractility), were measured.
Blood Pressure Change mm/hg at ED50 listing for selected molecules.
Response body: numeric value in mm/hg, unit text excluded.

C[C@@H](CCc1ccc(O)cc1)NC[C@H](O)c1ccccc1 [reference compound] :: -20
C[C@H](CCc1ccc(O)cc1)NC[C@H](O)c1ccc(O)cc1 :: -5
C[C@@H](CCc1ccc(O)cc1)NC[C@H](O)c1ccc(O)cc1 [reference compound] :: -2

Consider the record given below.
Missing value: Blood Pressure Change mm/hg at ED50, dogs, entry C[C@H](CCc1ccc(O)cc1)NC[C@H](O)c1ccccc1 . Fill in?
-13

Data credit: patent EP0007205A1
